Target Of Assay: hGSK3b (Homo sapiens, UniProt P49841)
Construct: purchased Cerep (LANCE kinase assay platform, contract assay)
Sequence (P49841 whole entry): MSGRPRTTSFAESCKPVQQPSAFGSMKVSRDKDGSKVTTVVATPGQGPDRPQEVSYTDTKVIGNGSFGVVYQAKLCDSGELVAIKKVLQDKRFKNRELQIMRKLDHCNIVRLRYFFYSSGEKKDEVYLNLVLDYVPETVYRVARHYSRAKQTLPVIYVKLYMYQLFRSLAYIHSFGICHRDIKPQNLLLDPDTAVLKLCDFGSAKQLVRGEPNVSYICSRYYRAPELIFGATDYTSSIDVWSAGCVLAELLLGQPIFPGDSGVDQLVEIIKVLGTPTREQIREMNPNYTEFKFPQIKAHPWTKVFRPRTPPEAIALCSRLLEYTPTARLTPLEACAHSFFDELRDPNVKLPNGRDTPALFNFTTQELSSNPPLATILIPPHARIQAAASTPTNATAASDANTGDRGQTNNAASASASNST
Protocol Description: Cerep LANCE kinase assay hGSK3b (S1 assay 34)
Format: biochemical
Experimental Parameters: assay number 34
Assignment: determine reported hGSK3b LANCE IC50/EC50 for the given molecules.

Notebook: CCC(C)n1ncn(-c2ccc(N3CCN(c4ccc(OC[C@H]5CO[C@](Cn6cncn6)(c6ccc(Cl)cc6Cl)O5)cc4)CC3)cc2)c1=O (stereo partly drawn) , hGSK3b LANCE IC50/EC50 read as > 20 µM

Notebook: `COc1ccc2cc1Oc1ccc(cc1)C[C@H]1c3c(cc4c(c3Oc3cc5c(cc3OC)CCN(C)[C@@H]5C2)OCO4)CCN1C` , hGSK3b LANCE IC50/EC50 read as > 20 µM

Notebook: `C=C(C)[C@H]1Cc2c(ccc3c2O[C@@H]2COc4cc(OC)c(OC)cc4[C@@H]2C3=O)O1` , hGSK3b LANCE IC50/EC50 read as > 20 µM
